tested on: Mycobacterium tuberculosis; test: Antimycobacterial activity against isoniazid-, rifampin-, ethambutol-resistant Mycobacterium tuberculosis after 16 to 24 hrs by alamar blue assay; format: functional
I'd appreciate it if you could supply MIC values for the items below.

Below are worked cases with known answers.
[
  {
    "compound": "NNC(=O)c1ccncc1",
    "measurement-name": "MIC",
    "observed": "≥ 2 µg/mL"
  },
  {
    "compound": "CO[C@H]1/C=C/O[C@@]2(C)Oc3c(C)c(O)c4c(O)c(c(/C=N/N5CCN(C)CC5)c(O)c4c3C2=O)NC(=O)/C(C)=C\\C=C\\[C@H](C)[C@H](O)[C@@H](C)[C@@H](O)[C@@H](C)[C@H](OC(C)=O)[C@@H]1C",
    "measurement-name": "MIC",
    "observed": "≥ 2 µg/mL"
  },
  {
    "compound": "CC1COc2c(N3CCN(C)CC3)c(F)cc3c(=O)c(C(=O)O)cn1c23 (stereo not given)",
    "measurement-name": "MIC",
    "observed": "≤ 2 µg/mL"
  },
  {
    "compound": "CN[C@@H]1[C@H](O[C@H]2[C@H](O[C@H]3[C@H](O)[C@@H](O)[C@H](N=C(N)N)[C@@H](O)[C@@H]3N=C(N)N)O[C@@H](C)[C@]2(O)C=O)O[C@@H](CO)[C@H](O)[C@H]1O",
    "measurement-name": "MIC",
    "observed": "≤ 2 µg/mL"
  }
]

The recorded MIC for CC[C@@H](CO)NCCN[C@@H](CC)CO is ≥ 8 µg/mL

====

I'd appreciate it if you could supply MIC values for the items below.
system: Mycobacterium tuberculosis; assay: Antimycobacterial activity against isoniazid-, rifampin-resistant Mycobacterium tuberculosis after 16 to 24 hrs by alamar blue assay; assay type: functional

[
  {
    "molecule": "CC[C@@H](CO)NCCN[C@@H](CC)CO [ETHAMBUTOL]",
    "observed": "≤ 2 µg/mL"
  },
  {
    "molecule": "CN[C@@H]1[C@H](O[C@H]2[C@H](O[C@H]3[C@H](O)[C@@H](O)[C@H](N=C(N)N)[C@@H](O)[C@@H]3N=C(N)N)O[C@@H](C)[C@]2(O)C=O)O[C@@H](CO)[C@H](O)[C@H]1O [STREPTOMYCIN]",
    "observed": "≤ 2 µg/mL"
  },
  {
    "molecule": "CC1COc2c(N3CCN(C)CC3)c(F)cc3c(=O)c(C(=O)O)cn1c23 (stereo not given) [OFLOXACIN]",
    "observed": "≤ 2 µg/mL"
  },
  {
    "molecule": "NNC(=O)c1ccncc1 [ISONIAZID]",
    "observed": "≥ 2 µg/mL"
  }
]

The recorded MIC for CO[C@H]1/C=C/O[C@@]2(C)Oc3c(C)c(O)c4c(O)c(c(/C=N/N5CCN(C)CC5)c(O)c4c3C2=O)NC(=O)/C(C)=C\C=C\[C@H](C)[C@H](O)[C@@H](C)[C@@H](O)[C@@H](C)[C@H](OC(C)=O)[C@@H]1C [RIFAMPIN] is ≥ 2 µg/mL

====

tested on: Mycobacterium tuberculosis; assay: Antimycobacterial activity against pyrazinamide-resistant Mycobacterium tuberculosis H37Rv ATCC 35828 after 16 to 24 hrs by alamar blue assay; format: functional
measurement-name: MIC (µg/mL)
Answers are plain numbers, in µg/mL.

Below are worked cases with known answers.
[
  {
    "smiles-text": "COc1ccc2cc1-c1cc(ccc1O)C[C@H]1c3cc4c(cc3CCN1C)Oc1c(OC)cc3c(c1O4)[C@H](C2)N(C)CC3",
    "MIC [µg/mL]": 6.2
  },
  {
    "smiles-text": "COc1ccc2cc1-c1cc(ccc1O)C[C@@H]1NCCc3cc4c(cc31)Oc1c(c(OC)cc3c1[C@H](C2)N(C)CC3)O4",
    "MIC [µg/mL]": 6.2
  },
  {
    "smiles-text": "COc1ccc2cc1-c1cc(ccc1O)C[C@H]1c3cc4c(cc3CCN1C)Oc1c(OC)cc3c(c1O4)[C@@H](C2)N(C)CC3",
    "MIC [µg/mL]": 6.2
  }
]

The recorded MIC for COc1ccc2cc1-c1cc(cc(Br)c1O)C[C@H]1c3cc4c(cc3CCN1C)Oc1c(OC)cc3c(c1O4)[C@H](C2)N(C)CC3 is 3.1
